Hey, just so you know, these numbers are from patent US20240327534A1.

TDCC EC50 (EJM cells) values by entry
- targetUnderTest: T1, human BCMA on BCMA expressing cell lines (human, UniProt Q02223 1-184)
- T1 sequence: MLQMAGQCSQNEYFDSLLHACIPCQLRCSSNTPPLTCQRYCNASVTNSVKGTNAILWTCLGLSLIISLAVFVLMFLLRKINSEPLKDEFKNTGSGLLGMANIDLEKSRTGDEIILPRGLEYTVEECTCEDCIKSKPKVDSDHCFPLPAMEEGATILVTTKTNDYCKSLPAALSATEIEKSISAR
- procedureText: cell-based or functional assay
State the answer as a number, implicitly in nM.

binder	assayResult
BCMA targeting trispecific protein 02C05 (other, trispecific; not shown: anti-albumin domain, anti-CD3 domain and the linkers of the trispecific (TriTAC) chain; the C-terminal 6xHis tag follows these missing domains and is left out) VHH: EVQLVESGGGLVQPGRSLTLSCAASTNIFSESPMGWYRQAPGKQRELVAAIHGFTTLYADSVKGRFTISRDNAKNSIYLQMNSLRPEDTALYYCNKVPWGDYHPRNVTWGQGTQVTVSS	0.0162
BCMA targeting trispecific protein 01G04 (other, not shown: large carriers; small tags and cut ends, trispecific) VHH: EVQLVESGGGLVQPGRSLTLSCAASTNIDSISPMGWYRQAPGKQRELVAAIHGNSTLYADSVKGRFTISRDNAKNSIYLQMNSLRPEDTALYYCNKVPWGDYHPRMVYWGQGTQVTVSS	0.0241
BCMA targeting trispecific protein 01F02 (other, trispecific; not shown: anti-albumin domain, anti-CD3 domain and the linkers of the trispecific; the C-terminal His6 that follows them is left out) VHH: EVQLVESGGGLVQPGRSLTLSCAASTNIFSHSPMGWYRQAPGKQRELVAAIHGTSTLYADSVKGRFTISRDNAKNSIYLQMNSLRPEDTALYYCNKVPWGRYHPRNVYWGQGTQVTVSS	0.225
BCMA targeting trispecific protein 01A06 (other, trispecific; not shown: the C-terminal 6xHis tag follows those missing domains and is left out) VHH: EVQLVESGGGLVQPGRSLTLSCAASTNIFSIRPMGWYRQAPGKQRELVAAIHGFSTVYADSVKGRFTISRDNAKNSIYLQMNSLRPEDTALYYCNKVPWGDYHPRNVYWGQGTQVTVSS	0.011

Below: the item to evaluate.
Q: # lookup: TDCC EC50 (EJM cells) of BCMA targeting trispecific protein 02B04 (other, trispecific; not shown: the C-terminal 6xHis tag follows those missing domains and is left out) VHH: EVQLVESGGGLVQPGRSLTLSCAASTNIFSTSPMGWYRQAPGKQRELVAAIHGFSTIYADSVKGRFTISRDNAKNSIYLQMNSLRPEDTALYYCNKVPWGDYHPLNVYWGQGTQVTVSS
Ans: 0.0113
